Could you please report measured tissue uptake at 4 h for the items listed next?
- run_description: Biodistribution studies in HEK-uPAR xenograft-bearing nude mice
- run_conditions: female, CD1/nude, mouse, muscle, 5 MBq (0.5 nmol), total radioactivity, 4 h p.i.; 5 MBq, 0.5 nmol; decay-corrected; average ± SD, n=3 animals
Report only the number, with the unit %ID/g understood.

// field: tissue uptake at 4 h; key: CC(C)C[C@H](NC(=O)[C@H](Cc1ccc(O)cc1)NC(=O)[C@@H](CCCNC(=N)N)NC(=O)[C@@H](CO)NC(=O)[C@H](Cc1ccccc1)NC(=O)[C@H](CC1CCCCC1)NC(=O)[C@H](CC(=O)O)NC(=O)[C@H](CCCCNC(=O)CCCc1ccc(I)cc1)NC(=O)[C@@H](N)CCCCNC(=O)CN1CCN(CC(=O)O)CCN(CC(=O)O)CCN(CC(=O)O)CC1)C(=O)N[C@@H](Cc1c[nH]c2ccccc12)C(=O)N[C@@H](CO)C(N)=O [[^177Lu]Lu-uPAR-04, metal not drawn] ; value = 1

// field: tissue uptake at 4 h; key: CC(C)C[C@H](NC(=O)[C@H](Cc1ccc(O)cc1)NC(=O)[C@@H](CCCNC(=N)N)NC(=O)[C@@H](CO)NC(=O)[C@H](Cc1ccccc1)NC(=O)[C@H](CC1CCCCC1)NC(=O)[C@H](CC(=O)O)NC(=O)[C@H](CCCCNC(=O)CCCc1ccc(I)cc1)NC(=O)CN1CCN(CC(=O)O)CCN(CC(=O)O)CCN(CC(=O)O)CC1)C(=O)N[C@@H](Cc1c[nH]c2ccccc12)C(=O)N[C@@H](CO)C(N)=O [[^177Lu]Lu-uPAR-01, metal not drawn] ; value = 1.4

---

- run_description: in vivo
- run_conditions: female, CD1/nude, mouse, 5 MBq (0.5 nmol), total radioactivity, Liver
Could you please report measured tissue uptake at 24 h for the items listed next?
Report only the number, with the unit %ID/g understood.

// field: tissue uptake at 24 h; key: CC(C)C[C@H](NC(=O)[C@H](Cc1ccc(O)cc1)NC(=O)[C@@H](CCCNC(=N)N)NC(=O)[C@@H](CO)NC(=O)[C@H](Cc1ccccc1)NC(=O)[C@H](CC1CCCCC1)NC(=O)[C@H](CC(=O)O)NC(=O)[C@H](CCCCNC(=O)CCOCCOCCOCCOCCNC(=O)c1ccc(CNC(=O)CCCc2ccc(I)cc2)cc1)NC(=O)CN1CCN(CC(=O)O)CCN(CC(=O)O)CCN(CC(=O)O)CC1)C(=O)N[C@@H](Cc1c[nH]c2ccccc12)C(=O)N[C@@H](CO)C(N)=O [[^177Lu]Lu-uPAR-03, metal not drawn] ; value = 3.2

// field: tissue uptake at 24 h; key: CC(C)C[C@H](NC(=O)[C@H](Cc1ccc(O)cc1)NC(=O)[C@@H](CCCNC(=N)N)NC(=O)[C@@H](CO)NC(=O)[C@H](Cc1ccccc1)NC(=O)[C@H](CC1CCCCC1)NC(=O)[C@H](CC(=O)O)NC(=O)[C@H](CCCCNC(=O)CCOCCOCCOCCOCCNC(=O)CCCc1ccc(I)cc1)NC(=O)CN1CCN(CC(=O)O)CCN(CC(=O)O)CCN(CC(=O)O)CC1)C(=O)N[C@@H](Cc1c[nH]c2ccccc12)C(=O)N[C@@H](CO)C(N)=O [[^177Lu]Lu-uPAR-02, metal not drawn] ; value = 1.6

---

- run_description: Biodistribution studies in HEK-uPAR xenograft-bearing nude mice
- run_conditions: female, CD1/nude, mouse, muscle, 5 MBq (0.5 nmol), total radioactivity, 24 h p.i.; 5 MBq, 0.5 nmol; decay-corrected; average ± SD, n=3 animals
measured_endpoint: tissue uptake at 24 h (%ID/g)
Report only the number, with the unit %ID/g understood.

// field: tissue uptake at 24 h; key: CC(C)C[C@H](NC(=O)[C@H](Cc1ccc(O)cc1)NC(=O)[C@@H](CCCNC(=N)N)NC(=O)[C@@H](CO)NC(=O)[C@H](Cc1ccccc1)NC(=O)[C@H](CC1CCCCC1)NC(=O)[C@H](CC(=O)O)NC(=O)CCOCCOCCOCCOCCNC(=O)[C@H](CCCCNC(=O)CCCc1ccc(I)cc1)NC(=O)CN1CCN(CC(=O)O)CCN(CC(=O)O)CCN(CC(=O)O)CC1)C(=O)N[C@@H](Cc1c[nH]c2ccccc12)C(=O)N[C@@H](CO)C(N)=O [[^177Lu]Lu-uPAR-05, metal not drawn] ; value = 0.41

---

- run_description: Biodistribution studies in HEK-uPAR xenograft-bearing nude mice
- run_conditions: female, CD1/nude, mouse, intestines, 5 MBq (0.5 nmol), total radioactivity, 24 h p.i.; 5 MBq, 0.5 nmol; decay-corrected; average ± SD, n=3 animals
measured_endpoint: tissue uptake at 24 h (%ID/g)
Report only the number, with the unit %ID/g understood.

// field: tissue uptake at 24 h; key: CC(C)C[C@H](NC(=O)[C@H](Cc1ccc(O)cc1)NC(=O)[C@@H](CCCNC(=N)N)NC(=O)[C@@H](CO)NC(=O)[C@H](Cc1ccccc1)NC(=O)[C@H](CC1CCCCC1)NC(=O)[C@H](CC(=O)O)NC(=O)CCOCCOCCOCCOCCNC(=O)[C@H](CCCCNC(=O)CCCc1ccc(I)cc1)NC(=O)CN1CCN(CC(=O)O)CCN(CC(=O)O)CCN(CC(=O)O)CC1)C(=O)N[C@@H](Cc1c[nH]c2ccccc12)C(=O)N[C@@H](CO)C(N)=O [[^177Lu]Lu-uPAR-05, metal not drawn] ; value = 0.73

// field: tissue uptake at 24 h; key: CC(C)C[C@H](NC(=O)[C@H](Cc1ccc(O)cc1)NC(=O)[C@@H](CCCNC(=N)N)NC(=O)[C@@H](CO)NC(=O)[C@H](Cc1ccccc1)NC(=O)[C@H](CC1CCCCC1)NC(=O)[C@H](CC(=O)O)NC(=O)CN1CCN(CC(=O)O)CCN(CC(=O)O)CCN(CC(=O)O)CC1)C(=O)N[C@@H](Cc1c[nH]c2ccccc12)C(=O)N[C@@H](CO)C(N)=O [[^177Lu]Lu-DOTA-AE105, metal not drawn, reference compound] ; value = 0.18

// field: tissue uptake at 24 h; key: CC(C)C[C@H](NC(=O)[C@H](Cc1ccc(O)cc1)NC(=O)[C@@H](CCCNC(=N)N)NC(=O)[C@@H](CO)NC(=O)[C@H](Cc1ccccc1)NC(=O)[C@H](CC1CCCCC1)NC(=O)[C@H](CC(=O)O)NC(=O)[C@H](CCCCNC(=O)CCCc1ccc(I)cc1)NC(=O)[C@@H](N)CCCCNC(=O)CN1CCN(CC(=O)O)CCN(CC(=O)O)CCN(CC(=O)O)CC1)C(=O)N[C@@H](Cc1c[nH]c2ccccc12)C(=O)N[C@@H](CO)C(N)=O [[^177Lu]Lu-uPAR-04, metal not drawn] ; value = 0.99

// field: tissue uptake at 24 h; key: CC(C)C[C@H](NC(=O)[C@H](Cc1ccc(O)cc1)NC(=O)[C@@H](CCCNC(=N)N)NC(=O)[C@@H](CO)NC(=O)[C@H](Cc1ccccc1)NC(=O)[C@H](CC1CCCCC1)NC(=O)[C@H](CC(=O)O)NC(=O)[C@H](CCCCNC(=O)CCCc1ccc(I)cc1)NC(=O)CN1CCN(CC(=O)O)CCN(CC(=O)O)CCN(CC(=O)O)CC1)C(=O)N[C@@H](Cc1c[nH]c2ccccc12)C(=O)N[C@@H](CO)C(N)=O [[^177Lu]Lu-uPAR-01, metal not drawn] ; value = 0.94

---

Could you please report measured Xenograft-to-blood ratio for the items listed next?
- System: HEK-uPAR xenograft-bearing nude mice
- run_description: Biodistribution studies in HEK-uPAR xenograft-bearing nude mice
- run_conditions: 4 h p.i.; average ± SD, n=3 animals
I'd appreciate a reply containing only the number, no unit.

// field: Xenograft-to-blood ratio; key: CC(C)C[C@H](NC(=O)[C@H](Cc1ccc(O)cc1)NC(=O)[C@@H](CCCNC(=N)N)NC(=O)[C@@H](CO)NC(=O)[C@H](Cc1ccccc1)NC(=O)[C@H](CC1CCCCC1)NC(=O)[C@H](CC(=O)O)NC(=O)CCOCCOCCOCCOCCNC(=O)[C@H](CCCCNC(=O)CCCc1ccc(I)cc1)NC(=O)CN1CCN(CC(=O)O)CCN(CC(=O)O)CCN(CC(=O)O)CC1)C(=O)N[C@@H](Cc1c[nH]c2ccccc12)C(=O)N[C@@H](CO)C(N)=O [[^177Lu]Lu-uPAR-05, metal not drawn] ; value = 0.42

// field: Xenograft-to-blood ratio; key: CC(C)C[C@H](NC(=O)[C@H](Cc1ccc(O)cc1)NC(=O)[C@@H](CCCNC(=N)N)NC(=O)[C@@H](CO)NC(=O)[C@H](Cc1ccccc1)NC(=O)[C@H](CC1CCCCC1)NC(=O)[C@H](CC(=O)O)NC(=O)CN1CCN(CC(=O)O)CCN(CC(=O)O)CCN(CC(=O)O)CC1)C(=O)N[C@@H](Cc1c[nH]c2ccccc12)C(=O)N[C@@H](CO)C(N)=O [[^177Lu]Lu-DOTA-AE105, metal not drawn, reference compound] ; value = 11

// field: Xenograft-to-blood ratio; key: CC(C)C[C@H](NC(=O)[C@H](Cc1ccc(O)cc1)NC(=O)[C@@H](CCCNC(=N)N)NC(=O)[C@@H](CO)NC(=O)[C@H](Cc1ccccc1)NC(=O)[C@H](CC1CCCCC1)NC(=O)[C@H](CC(=O)O)NC(=O)[C@H](CCCCNC(=O)CCCc1ccc(I)cc1)NC(=O)[C@@H](N)CCCCNC(=O)CN1CCN(CC(=O)O)CCN(CC(=O)O)CCN(CC(=O)O)CC1)C(=O)N[C@@H](Cc1c[nH]c2ccccc12)C(=O)N[C@@H](CO)C(N)=O [[^177Lu]Lu-uPAR-04, metal not drawn] ; value = 0.28

// field: Xenograft-to-blood ratio; key: CC(C)C[C@H](NC(=O)[C@H](Cc1ccc(O)cc1)NC(=O)[C@@H](CCCNC(=N)N)NC(=O)[C@@H](CO)NC(=O)[C@H](Cc1ccccc1)NC(=O)[C@H](CC1CCCCC1)NC(=O)[C@H](CC(=O)O)NC(=O)[C@H](CCCCNC(=O)CCCc1ccc(I)cc1)NC(=O)CN1CCN(CC(=O)O)CCN(CC(=O)O)CCN(CC(=O)O)CC1)C(=O)N[C@@H](Cc1c[nH]c2ccccc12)C(=O)N[C@@H](CO)C(N)=O [[^177Lu]Lu-uPAR-01, metal not drawn] ; value = 0.57
